Taken from patent US11535611B2.

Recorded pIC50 values (PDE1A (Homo sapiens (Human), UniProt P54750)) are given below.
pIC50: −log10 of the molar value.
QUANTITY: pIC50

>>> df
                                    compound                              assay_target  endpoint_result
 0  CCCn1ncc2nc(-c3cccnc3OCC)cc(N[C@@H]3CCOC3)c21 (single isomer, unassigned) [Example 23]  PDE1A (Homo sapiens (Human), UniProt P54750)             6.32
 1  CCOc1ncccc1-c1nc2c(C)nn(CC)c2cc1C [Example 15]  PDE1A (Homo sapiens (Human), UniProt P54750)             6.00
 2  CCOc1nccc(C)c1-c1cc(N[C@@H]2CCOC2)c2c(cnn2C(C)C)n1 [Example 34]  PDE1A (Homo sapiens (Human), UniProt P54750)             6.42
 3  CC(C)n1ncc2nc(-c3cccnc3OC(C)(C)C)cc(N[C@@H]3CCOC3)c21 [Example 36]  PDE1A (Homo sapiens (Human), UniProt P54750)             6.59
 4  COc1ccc(Cc2cc(N[C@@H]3CCOC3)c3c(cnn3C(C)C)n2)cc1 [Example 57]  PDE1A (Homo sapiens (Human), UniProt P54750)             6.06
 5  CCOc1ncccc1-c1cc(N2CCCC2)c2c(cnn2CC)n1 [Example 16]  PDE1A (Homo sapiens (Human), UniProt P54750)             6.34
 6  CCOc1ncccc1-c1cc(N[C@H]2CCCOC2)c2c(cnn2C(C)C)n1 [Example 9]  PDE1A (Homo sapiens (Human), UniProt P54750)             6.16
 7  CCOc1ncccc1-c1ccn2c(C3(C)COC3)nc(C)c2n1 [Example 77]  PDE1A (Homo sapiens (Human), UniProt P54750)             6.35
 8  CCOc1ncccc1-c1ccn2c(C3COC3)nc(C)c2n1 [Example 79]  PDE1A (Homo sapiens (Human), UniProt P54750)             6.39
 9  CCOc1ncccc1-c1nc2c(C)nc(C(C)C)n2cc1C [Example 71]  PDE1A (Homo sapiens (Human), UniProt P54750)             7.13
10  CCOc1ncccc1-c1cc(NCC2CC(=O)N(C)C2)c2c(n1)c(C)nn2C(C)C (stereo not shown) [Example 68]  PDE1A (Homo sapiens (Human), UniProt P54750)             7.28
11  COc1ccccc1-c1nc2c(C)nn(C(C)C)c2cc1C [Example 62]  PDE1A (Homo sapiens (Human), UniProt P54750)             6.16
12  CCOc1ncccc1-c1ccn2c(C(C)CC)nc(C)c2n1 (racemic) [Example 76]  PDE1A (Homo sapiens (Human), UniProt P54750)             7.21
13  CCCn1ncc2nc(-c3cccnc3OCC)cc(N3CCCC3)c21 [Example 18]  PDE1A (Homo sapiens (Human), UniProt P54750)             6.20
14  CC(C)n1ncc2nc(-c3ccccc3C#N)cc(N[C@@H]3CCOC3)c21 [Example 41]  PDE1A (Homo sapiens (Human), UniProt P54750)             6.02
15  CCOc1ncccc1-c1nc2c(C)nn(C(C)C)c2cc1C [Example 63]  PDE1A (Homo sapiens (Human), UniProt P54750)             7.07
16  CCOc1ncccc1-c1cc(NC(C)C)c2c(cnn2C(C)C)n1 [Example 12]  PDE1A (Homo sapiens (Human), UniProt P54750)             5.95
17  CCOc1ncccc1-c1cc(NC[C@H]2CCCO2)c2c(cnn2C(C)C)n1 [Example 7]  PDE1A (Homo sapiens (Human), UniProt P54750)             6.35
18  CCOc1ncccc1-c1ccc2c(n1)c(C)nn2C(C)C [Example 59]  PDE1A (Homo sapiens (Human), UniProt P54750)             7.28
